# Study target: T1, human PD-1 extracellular domain (human, UniProt Q15116 25-170)
# T1 construct: extracellular domain; Soluble analyte in the bio-layer interferometry assay; also called recombinant human PD-1 extracellular domain protein
# T1 sequence (Q15116 25-170): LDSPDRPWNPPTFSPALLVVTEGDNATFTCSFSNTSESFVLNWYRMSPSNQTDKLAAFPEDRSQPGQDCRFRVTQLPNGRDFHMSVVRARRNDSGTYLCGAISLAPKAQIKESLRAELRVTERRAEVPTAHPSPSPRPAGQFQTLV
# Test method notes: bio-layer interferometry (Octet Red 96), antibody on anti-human Fc biosensor, PD-1 ECD in solution, 1:1 global fit, 30 C
Endpoint name: pKd
// field semantics: pKd = negative decimal log of concentration (mol/L)

Binder: AB1HU (antibody, human IgG1, kappa, V domains shown, Humanized, human gamma-1 / kappa constant domains as in the full-length entries; also called humanized form of antibody AB1) VH: EVQLVESGGGLVQPGGSLRLSCAASGFDFSSGYWICWVRQAPGKGLELIACIYAGTSGSTSYASWARGRFTISETSKNTVTLQMNSLRAEDSAVYYCARNLYTYNSLWGQGTLVTVSS VL: DIQMTQSPSTLSASVGDRVTITCQSSQSVYDNNWLAWYQQKPGKAPKLLIYTVSTLASGVPSRFSGSGSGTEFTLTISSLQPDDFATYYCQGTYYSSGWNFAFGGGTKVEIKR
Observed value: 7.80
--
Binder: AB3HU (antibody, human IgG1, kappa, V domains shown, Humanized, human gamma-1 / kappa constant domains as in the full-length entries; also called humanized form of antibody AB3) VH: QEQVKETGGGLVQPGGSLRLSCAASGFTISSYGVSWVRQAPGKGLEWVALIFPGIGFKDYASWVNGRFTLSSDNAQNTVELQMNSLRAEDTAVYYCARDLDLWGQGTLVTVSS VL: DIQMTQSPSSLSASVGDRVTITCQSSPSVYSNYLSWYQQKPGKVPKLLIYYASTLASGVPSRFSGSGSGTDFTLTISSLQPEDVATYYCAGGYSSSTRAFGGGTKVEIKR
Observed value: 8.96
--
Binder: AB2HU (antibody, human IgG1, kappa, V domains shown, Humanized, human gamma-1 / kappa constant domains as in the full-length entries; also called humanized form of antibody AB2) VH: QEQLLESGGGLVQPGGSLRLSCTASGFSFSSYWMCWVRQAPGKGLEWIGCITTGSGSTYYASWAKRRFTISKDNSKNTVTLQMNSLRAEDTAVYYCTRAFDLWGQGTLVTVSS VL: DIQMTQSPSSLSASVGDRVTITCQASQSIYSYLNWYQQKPGKAPKLLIYGASNLASGVPSRFSGSGSGTDFTLTISSLQPEDFATYYCQSSWLSGAVGNAFGGGTKVEIKR
Observed value: 7.77
--
Binder: AB4HU (antibody, human IgG1, kappa, V domains shown, Humanized, human gamma-1 / kappa constant domains as in the full-length entries; also called humanized form of antibody AB4) VH: EVQLVESGGGLVQPGGSLRLSCTASGFSLSSYAMSWVRQAPGKGLEYIGYIGDTTGIAYASWANGRFTISKDNTKNTVDLQMNSLRAEDTAVYYCARGWSYLDIWGQGTLVTVSS VL: ALVMTQSPSSLSASVGDRVTITCQASQNIYSNLAWYQQKPGKVPKLLIYQASTLASGVPSRFSGSGYGTDFTLTISSLQPEDVATYYCQGGYYSAALNTFGGGTKVEIKR
Observed value: 8.37

As a next step, examine the binder that follows.
Which pKd is reported for this binder? AB2 (antibody, human IgG1, kappa, V domains shown, Rabbit variable domains on human IgG1 / human kappa constant domains; also called AB2 chimeric) VH: QEQLVESGGGLVQPEGSLTLTCTASGFSFSSYWMCWVRQAPGKGLEWIGCITTGSGSTYYASWAKRRFTISKTSSTTVTLQMTSLTAADTATYFCTRAFDLWGPGTLVTVSS VL: DVVMTQTPASVSAVVGGTVTIKCQASQSIYSYLNWYQQKPGQPPKLLIYGASNLASGVSSRFKGSGSGTEFTLTISDLECADAATYYCQCSWLSGAVGNAFGGGTEVVVKR
7.07
